# Target Under Test: ras p21 protein
# Method: Ras p21 Nucleotide Exchange Assay (inhibition of ^3H-GDP binding to p21 ras)
# Type: biochemical
# Reported Conditions: table 2; concentration causing 50% inhibition of ^3H-GDP binding; read-out: ras p21 Assay (IC50)
Below, each of the molecules is paired with its reported IC50 value.
State the value with its unit after it.

Would you please look over these solved cases?
• COc1ccc2nc3c(c(C)nn3[C@@H]3O[C@H](C(O)CC(=O)c4ccccc4)[C@H]4OC(=S)O[C@H]43)c(Cl)c2c1 (some centres unmarked) [Compound U] = 1.5 µM
• COc1ccc2nc3c(c(C)nn3[C@@H]3O[C@H](COC(=O)c4ccccc4)[C@@H](OC(=O)c4ccccc4)[C@H]3OC(=O)c3ccccc3)c(Cl)c2c1 [O(CO)Ph O(CO)Ph O(CO)Ph] = 10 µM
• COc1ccc2nc3c(c(C)nn3[C@H]3C=C[C@@H](COC(=O)c4ccccc4)O3)c(Cl)c2c1 [O(CO)Ph --] = 90 µM
• COc1ccc2nc3c(c(C)nn3[C@@H]3O[C@H](COC(=O)c4ccco4)[C@@H](OC(=O)c4ccco4)[C@H]3OC(=O)c3ccco3)c(Cl)c2c1 [O(CO)-2-Fu O(CO)-2-Fu O(CO)-2-Fu] = 10 µM

Query: I would be grateful if you could share the reported IC50 for COc1ccc2nc3c(c(C)nn3[C@@H]3O[C@H](COC(=O)c4ccccc4)[C@H]4OC(=S)O[C@H]43)c(Cl)c2c1 [(CO)Ph OC(S)O] .
Result: 15 µM
